- tgt: Voltage-gated inwardly rectifying potassium channel KCNH2 (Homo sapiens, UniProt Q12809)
- Sequence (Q12809 whole entry): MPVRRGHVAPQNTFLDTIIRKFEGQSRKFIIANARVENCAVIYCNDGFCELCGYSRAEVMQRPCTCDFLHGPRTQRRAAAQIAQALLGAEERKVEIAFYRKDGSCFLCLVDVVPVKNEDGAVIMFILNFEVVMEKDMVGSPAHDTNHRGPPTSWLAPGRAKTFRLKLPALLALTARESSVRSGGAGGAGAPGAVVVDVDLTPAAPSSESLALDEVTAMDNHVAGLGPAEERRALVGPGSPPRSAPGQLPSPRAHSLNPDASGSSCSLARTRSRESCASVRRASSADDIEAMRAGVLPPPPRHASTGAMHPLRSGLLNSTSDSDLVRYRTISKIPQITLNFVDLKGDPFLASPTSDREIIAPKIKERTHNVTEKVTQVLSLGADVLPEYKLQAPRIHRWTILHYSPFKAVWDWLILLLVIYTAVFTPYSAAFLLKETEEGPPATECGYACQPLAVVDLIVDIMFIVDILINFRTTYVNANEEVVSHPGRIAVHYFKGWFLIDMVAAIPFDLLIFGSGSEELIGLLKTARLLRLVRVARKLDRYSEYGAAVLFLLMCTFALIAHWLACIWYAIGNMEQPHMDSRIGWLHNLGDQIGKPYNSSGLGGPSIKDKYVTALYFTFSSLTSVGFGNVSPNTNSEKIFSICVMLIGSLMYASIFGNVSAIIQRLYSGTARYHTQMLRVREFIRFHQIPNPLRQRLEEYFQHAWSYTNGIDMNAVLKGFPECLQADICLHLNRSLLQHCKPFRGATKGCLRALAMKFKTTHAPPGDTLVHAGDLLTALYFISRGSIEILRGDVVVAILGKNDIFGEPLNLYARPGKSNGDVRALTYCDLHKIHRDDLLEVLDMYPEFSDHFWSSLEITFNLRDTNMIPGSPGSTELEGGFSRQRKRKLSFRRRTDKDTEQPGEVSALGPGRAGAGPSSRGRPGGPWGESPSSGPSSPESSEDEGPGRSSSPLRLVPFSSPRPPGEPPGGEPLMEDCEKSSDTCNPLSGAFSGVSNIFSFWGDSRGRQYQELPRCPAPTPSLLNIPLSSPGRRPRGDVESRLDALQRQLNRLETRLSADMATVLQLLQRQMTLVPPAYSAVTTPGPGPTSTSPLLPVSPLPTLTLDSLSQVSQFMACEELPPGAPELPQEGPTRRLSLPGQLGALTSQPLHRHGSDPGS
measurement kind: pKi
FYI, pKi means -log10 of a concentration in mol per litre.

### Prompt API: value(readout=pKi, system=Voltage-gated inwardly rectifying potassium channel KCNH2 (Homo sapiens, UniProt Q12809)) for record `CN1CCC(Nc2nccc(-c3c[nH]nc3-c3ccc(Cl)cc3)n2)CC1`
### Response 5.99

====

- tgt: Dual specificity mitogen-activated protein kinase kinase 6 (Homo sapiens, UniProt P52564)
- Sequence (P52564 whole entry): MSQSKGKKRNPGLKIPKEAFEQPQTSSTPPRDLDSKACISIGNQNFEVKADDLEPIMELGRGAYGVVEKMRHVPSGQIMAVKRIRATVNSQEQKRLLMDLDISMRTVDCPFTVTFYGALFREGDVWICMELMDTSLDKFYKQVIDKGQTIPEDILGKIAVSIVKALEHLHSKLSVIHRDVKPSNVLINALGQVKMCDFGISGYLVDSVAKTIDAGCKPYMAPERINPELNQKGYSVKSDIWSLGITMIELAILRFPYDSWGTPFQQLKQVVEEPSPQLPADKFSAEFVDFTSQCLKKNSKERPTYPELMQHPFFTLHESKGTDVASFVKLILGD
- method summary: Inhibition of MKK6
measurement kind: IC50 (µM)
Give the number; µM is assumed, so skip it.

### Prompt Recorded IC50 for `O[C@H]1CC[C@H](c2[nH]ncc2-c2ccnc(NC3CCCC3)n2)CC1` , please?
### Response 15

====

Listing of recorded pKi by entry.
- tgt: Mitogen-activated protein kinase 8 (Homo sapiens, UniProt P45983)
- Sequence (P45983 whole entry): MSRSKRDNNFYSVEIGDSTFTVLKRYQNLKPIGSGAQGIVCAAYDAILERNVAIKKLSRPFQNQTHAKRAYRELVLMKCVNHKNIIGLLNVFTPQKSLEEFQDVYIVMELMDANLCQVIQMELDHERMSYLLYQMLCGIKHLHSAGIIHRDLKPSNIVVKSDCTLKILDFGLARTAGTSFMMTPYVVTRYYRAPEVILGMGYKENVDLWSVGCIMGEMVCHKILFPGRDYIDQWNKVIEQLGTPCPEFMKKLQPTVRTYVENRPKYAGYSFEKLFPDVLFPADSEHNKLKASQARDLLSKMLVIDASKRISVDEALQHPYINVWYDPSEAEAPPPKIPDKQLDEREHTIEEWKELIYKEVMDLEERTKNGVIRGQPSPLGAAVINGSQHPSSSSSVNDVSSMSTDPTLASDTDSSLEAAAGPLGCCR
- method summary: Inhibition of JNK1
FYI, pKi means -log10 of a concentration in mol per litre.

For orientation, consider the following solved cases.
CC(C)Nc1nccc(-c2cn[nH]c2C2CCCNC2)n1 (centres undefined)	6.28
C[C@H](CC(=O)O)Nc1nccc(-c2c[nH]nc2-c2ccc(Cl)cc2)n1	6.50
CN1CCC(Nc2nccc(-c3c[nH]nc3-c3ccc(Cl)cc3)n2)CC1	5.80
Clc1ccc(-c2n[nH]cc2-c2ccnc(NC3CC3)n2)cc1	6.82

### Prompt Recorded pKi for CC(C)Nc1nccc(-c2cn[nH]c2C2CCCCO2)n1 (centres undefined) , please?
### Response 6.42

### Prompt Recorded pKi for OC1CCCC(c2n[nH]cc2-c2ccnc(NC3CCCC3)n2)C1 (centres undefined) , please?
### Response 7.44

### Prompt Recorded pKi for `CC(C)Nc1nccc(-c2c[nH]nc2C2CCOCC2)n1` , please?
### Response 6.77

### Prompt Recorded pKi for `Clc1ccc(-c2n[nH]cc2-c2ccnc(NC3CCCCC3)n2)cc1` , please?
### Response 7.57

### Prompt Recorded pKi for `Cc1ccc(-c2n[nH]cc2-c2ccnc(NC3CCN(C)CC3)n2)cn1` , please?
### Response 6.79

### Prompt Recorded pKi for `CC(C)Nc1nccc(-c2c[nH]nc2-c2ccc(Cl)cc2)n1` , please?
### Response 7.32

### Prompt Recorded pKi for `Cc1ccnc(S)n1` , please?
### Response 5.69

### Prompt Recorded pKi for `CC(C)Nc1nccc(-c2cn[nH]c2)n1` , please?
### Response 5.56

### Prompt Recorded pKi for c1cc(-c2cn[nH]c2C2CCCOC2)nc(NC2CCCC2)n1 (centres undefined) , please?
### Response 7.92

### Prompt Recorded pKi for `CC(=O)N[C@H]1CC[C@H](c2n[nH]cc2-c2ccnc(NC3CCCC3)n2)CC1` , please?
### Response 7.55

### Prompt Recorded pKi for `O[C@H]1CC[C@H](c2[nH]ncc2-c2ccnc(NC3CCCC3)n2)CC1` , please?
### Response 7.92

### Prompt Recorded pKi for `CC(C)Nc1nccc(-c2cn[nH]c2C2CCN(S(C)(=O)=O)CC2)n1` , please?
### Response 7.00

### Prompt Recorded pKi for `CS(=O)(=O)N[C@H]1CC[C@H](c2n[nH]cc2-c2ccnc(NC3CCCC3)n2)CC1` , please?
### Response 8.05

### Prompt Recorded pKi for CC(C)Nc1nccc(-c2c[nH]nc2C2CCCOC2)n1 (centres undefined) , please?
### Response 7.37

### Prompt Recorded pKi for `Clc1ccc(-c2n[nH]cc2-c2ccnc(NC3CCCC3)n2)cc1` , please?
### Response 7.59
